System: HBV viral load (viral production from HepAD38 cells)
ASSAY DETAILS: Activity of test compounds on viral production from HepAD38 cells (viral load by qPCR of HBV core sequence)
Assay type: cell-based
EXPERIMENTAL SETUP: read-out: VL HepAD38 EC50 range, viral load lowering, 5 days, qPCR of supernatant
pEC50: −log10 of the molar value.
MEASURED ATTRIBUTE: pEC50

stdin: Fill in the blank: the reported pEC50 of O=C1CC2CC(c3nc4n(c3C(=O)Nc3ccc(F)c(Cl)c3)CCCC4)CC2C1 (stereo not shown) is ____.
stdout: 6.30 to 7.30
